Target: PDE4
Assay: In vitro enzyme assay: PDE4 inhibitory activity
Conditions: PDE4 enzyme solution from U937 cells (originated from human monocyte), 3H-cAMP substrate, room temperature 30 minutes
Method: U937 cells (originated from human monocyte) were cultured in PRMI 1640 medium containing 10% fetal bovine serum. The U937 cells were harvested and homogenized in 20 mM Tris-HCl buffer [pH 8.0, containing PMSF (1 mM), leupeptin (1 μg/ml) and pepstatin A (1 μg/ml)]. […] The enzyme activity was measured by the following method. […] To an alumina column (100 μl), 50 μl of the supernatant was applied, eluted with 80 μl of 0.005 N hydrochloric acid, and radioactivity of the eluate was measured. […]
quantity.kind: IC50 (nM)
Output spec: scalar in nM, unitless text.

// query Name the recorded IC50 of COc1ccc(C2(C#N)CCN(CC(=O)NO)CC2)cc1OC1CCCC1 , assay system PDE4.
// result 0.03
